Source of measurements: the supplement of paper PMC10567573

B1: COX4I1 (parent)
chain: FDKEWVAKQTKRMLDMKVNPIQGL

Variants of: B1
Experiment: protein stability index of a GFP-peptide fusion (GPS, HEK-293T) (PSI 1-6); higher = more stable;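 also: lentivirally expressed fusions sorted by FACS into six bins by GFP to DsRed ratio, PSI derived from sequencing read proportions per bin multiplied by bin number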
Conditions: c terminus: a fixed tail appended
value-type: protein stability index
Answers are plain numbers.

Sample answers from the record:
   mutation_code               value_type  measurement
0            K8G  protein stability index         1.87
1           I21Y  protein stability index         1.75
2           Q22P  protein stability index         1.73
3            A7C  protein stability index         1.27
4           D15F  protein stability index         1.84

Below are some variants; for each one, tell me its protein stability index.
1. D15S
2. L24W
3. K17Y

Output:
[1.58, 1.73, 2.14]

Below are some variants; for each one, tell me its protein stability index.
1. P20E
2. D15I

Output:
[1.59, 1.76]

// field: protein stability index; key: K11G ; value = 1.62
